Molecular target: T1, recombinant human OX40-Fc (human, UniProt P43489 29-214)
T1 construct: also called rh-OX40-Fc; human OX40 hFC (R & D systems)
T1 sequence: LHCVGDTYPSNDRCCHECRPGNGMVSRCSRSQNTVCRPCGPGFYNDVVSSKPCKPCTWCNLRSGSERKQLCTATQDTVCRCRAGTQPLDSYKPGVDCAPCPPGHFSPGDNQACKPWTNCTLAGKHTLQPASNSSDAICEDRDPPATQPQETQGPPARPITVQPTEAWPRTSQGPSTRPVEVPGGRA
Assay: ELISA, OX40-Fc coated, VHH at 200 nM
Task for the reader: assign each of the following binders its reported OD450.
One number for each entry.

Would you please look over these solved cases?
binder	result-number
pgXX88-SZ-15 (VHH, not shown: small tags and cut ends) VHH: QVQLVESGGGLVQPGGSLRLSCSPSEGAFKMLTTGWFRQVLGKEREFVSAISWGGGATYYADSVKGRFTVSRDNAKNTVYLQMNSLKPEDTAVYYCAVDTGNGVATNIRSQSRYDYWGQGTQVTVSS	1.94
pgXX88-27 (VHH, not shown: small tags and cut ends) VHH: EVQLVESGGGLVQPGGSVTLSCATSKDTFSRYHMGWFRQAAGKEREFVAAIANTGTTTDYADFVKGRFTISRDSAKNTVYLQMDSLKVEDTAMYYCVVGSQFMSYDYWGQGTQVTVSS	1.3
pgXX88-81 (VHH, not shown: small tags and cut ends) VHH: EVQLVESGGGLAQPGSSLRLSCTASGTVFSILSATWFRQAPGKAHEARELVAFISSDGVSMHADSVKGRFTISRDNAKSTVYLQMDNLQPEDTAAYYCKLSNSMMGMEYWGRGTQVTVSS	0.666

Param item = pgXX88-84 (VHH, not shown: small tags and cut ends) VHH: EVQLVESGGRLVQAGDSLKLSCTASGRTFSDYVMGWFRQVPGEGRLMVAVITPAGDTTEYADAVKGRFSISKDSAKRTVNLQMNNLKVDDTAVYYCAAGPSWIGMQFGTAEYWGQGTQVTVSS ; retrieve measured OD450.
0.296

Data credit: patent US20250376535A1
